B1: HNF4A (parent)
chain: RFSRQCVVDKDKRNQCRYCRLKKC

variants of: B1; assay: protein stability index of a GFP-peptide fusion (GPS, HEK-293T) (PSI 1-6); higher = more stable; conditions: c terminus: a fixed tail appended;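 note: lentivirally expressed fusions sorted by FACS into six bins by GFP to DsRed ratio, PSI derived from sequencing read proportions per bin multiplied by bin number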
experimental-readout: protein stability index
Response field accepts a number only; no unit should be typed.

Query: Which protein stability index reading was recorded for the variant D9K ?
Result: 2.13

Query: Which protein stability index reading was recorded for the variant F2V ?
Result: 2.37

Query: Which protein stability index reading was recorded for the variant R4W ?
Result: 2.4

Query: Which protein stability index reading was recorded for the variant V8Q ?
Result: 2.66

Query: Which protein stability index reading was recorded for the variant Q15G ?
Result: 2.37

Query: Which protein stability index reading was recorded for the variant Q15Y ?
Result: 2.48
